Would you mind telling me the reported pIC50 of each entry?
- experimentalTarget: Heparanase (Homo sapiens, UniProt Q9Y251)
- Sequence (Q9Y251 whole entry): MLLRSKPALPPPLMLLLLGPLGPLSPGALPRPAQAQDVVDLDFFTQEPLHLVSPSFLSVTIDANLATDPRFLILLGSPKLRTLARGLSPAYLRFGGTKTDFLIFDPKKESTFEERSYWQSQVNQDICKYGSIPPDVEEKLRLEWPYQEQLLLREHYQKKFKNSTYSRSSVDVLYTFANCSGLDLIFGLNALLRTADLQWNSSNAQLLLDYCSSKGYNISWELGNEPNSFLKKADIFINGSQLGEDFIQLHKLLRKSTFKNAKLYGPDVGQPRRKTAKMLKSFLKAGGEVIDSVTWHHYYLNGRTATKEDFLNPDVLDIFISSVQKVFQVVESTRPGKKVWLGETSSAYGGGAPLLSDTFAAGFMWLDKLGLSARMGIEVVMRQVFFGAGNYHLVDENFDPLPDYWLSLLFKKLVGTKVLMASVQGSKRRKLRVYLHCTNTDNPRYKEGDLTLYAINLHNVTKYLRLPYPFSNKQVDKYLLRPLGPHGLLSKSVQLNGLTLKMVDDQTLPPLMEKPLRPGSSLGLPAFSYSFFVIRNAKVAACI
- assayName: Inhibition of recombinant human HPSE1 using biotinylated heparan sulfate-Eu cryptate as substrate pre-incubated for 10 mins followed by substrate addition and measured after 60 mins by fluorescence based HTRF assay
Field pIC50 (float): negative decimal logarithm of the concentration in molar.

Lookup: Would you mind telling me what pIC50 value was observed for O=C(O)[C@@H]1[C@@H](O)[C@H](O)[C@@H](O)c2nc(-c3ccc(Oc4ccccc4)cc3)cn21 ?
Found: 5.96

Lookup: Would you mind telling me what pIC50 value was observed for O=C(O)[C@@H]1[C@@H](O)[C@H](O)[C@@H](O)c2nc(CCc3cccc(Oc4ccccc4)c3)cn21 ?
Found: 6.33

Lookup: Would you mind telling me what pIC50 value was observed for O=C(O)[C@@H]1[C@@H](O)[C@H](O)[C@@H](O)c2nc(CCc3ccc(CCc4ccccc4)cc3)cn21 ?
Found: 5.70

Lookup: Would you mind telling me what pIC50 value was observed for O=C(O)[C@@H]1[C@@H](O)[C@H](O)[C@@H](O)c2nc(C3CCN(C(=O)c4ccccc4Oc4ccccc4)CC3)cn21 ?
Found: 5.76

Lookup: Would you mind telling me what pIC50 value was observed for O=C(O)[C@@H]1[C@@H](O)[C@H](O)[C@@H](O)c2nc(CCc3ccc(Oc4ccccc4)cc3)cn21 ?
Found: 6.23

Lookup: Would you mind telling me what pIC50 value was observed for O=C(O)[C@@H]1[C@@H](O)[C@H](O)[C@@H](O)c2nc(CCc3ccc(S(=O)(=O)c4ccccc4)cc3)cn21 ?
Found: 6.13

Lookup: Would you mind telling me what pIC50 value was observed for COc1cccc(OC)c1Oc1cccc(CCc2cn3c(n2)[C@H](O)[C@@H](O)[C@H](O)[C@H]3C(=O)O)c1OC ?
Found: 5.00

Lookup: Would you mind telling me what pIC50 value was observed for Cc1ccc(S(=O)(=O)Nc2ccc(CCc3cn4c(n3)[C@H](O)[C@@H](O)[C@H](O)[C@H]4C(=O)O)cc2)cc1 ?
Found: 5.87
